All figures here come from paper PMC6143434.

Let's look at some compounds and their measured pKd.
system-under-test: α2 adrenoceptors (striatum, α2A and α2C)
test-summary: [3H]RX821002 binding
Parameters: species or system sheep
run-parameters: read-out: KDB1; striatum; vs [3H]RX821002; two-state dimer model, first protomer
Note on pKd: it is the negative log10 of concentration, concentration in mol/L.

Tell me the measured pKd of Cc1ncc(CN2CC=C(c3ccccc3)CC2)c(N)n1.Cl.Cl [RO-105824, RO-105824 dihydrochloride] , please.
9.38

* * *

system-under-test: α2C adrenoceptor (Homo sapiens, UniProt P18825)
Sequence (P18825 1-462): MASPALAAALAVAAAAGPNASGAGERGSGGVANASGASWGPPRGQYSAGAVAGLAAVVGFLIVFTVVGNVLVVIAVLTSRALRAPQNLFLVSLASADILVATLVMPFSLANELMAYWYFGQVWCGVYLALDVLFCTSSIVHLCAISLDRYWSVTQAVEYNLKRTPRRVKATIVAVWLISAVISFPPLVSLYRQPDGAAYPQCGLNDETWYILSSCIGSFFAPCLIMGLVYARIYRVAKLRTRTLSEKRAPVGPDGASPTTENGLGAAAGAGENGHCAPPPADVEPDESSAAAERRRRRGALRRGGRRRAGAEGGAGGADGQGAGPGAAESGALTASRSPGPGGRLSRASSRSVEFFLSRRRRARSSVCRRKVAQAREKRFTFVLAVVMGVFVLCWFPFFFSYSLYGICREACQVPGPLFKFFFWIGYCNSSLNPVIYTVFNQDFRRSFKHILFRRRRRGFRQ
test-summary: G protein activation BRET assay in transfected HEK-293T cells
Assay type: cell-based
run-parameters: read-out: Potency (EC50) G protein activation; Gαi3; α2C
Where a name gives a salt, the structure may show the parent alone.
readout: EC50 (nM)
Express the result in nM but write the number alone.

Given the entry CCCN(C/C=C/I)C1CCc2ccc(O)cc2C1 (stereo not shown) [7-OH-PIPAT, 7-OH-PIPAT maleate] , what EC50 was observed with α2C adrenoceptor (Homo sapiens, UniProt P18825)?
5
